EXPERIMENT_DESCRIPTION: small-molecule binders of probe aNOTCH3, primary screen, biochemical, small-molecule microarray, 635/667 nm fluorescence (AID 1120);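 also: probe is a biotin-tagged antibody raised against NOTCH3 rather than NOTCH3 protein; score merges spot fluorescence near 667 nm with spot signal to noise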
STUDY_CONDITIONS: higher = more signal
Let's look at some compounds and their measured composite z-score.

Ask: What composite z-score value was documented for this compound, `CN(C)C(=O)[C@@]1(Cc2ccccc2N=[N+]=[N-])N=C(c2ccc(OCCCO)cc2)O[C@H]1c1ccccc1CN=[N+]=[N-]` ?
Reply: 0.293

* * *

Test system: Lefty1
EXPERIMENT_DESCRIPTION: Lefty1 binders on small-molecule microarrays, primary screen, biochemical, small-molecule microarray, 635/667 nm fluorescence (AID 1139)
STUDY_CONDITIONS: small-molecule microarray binding, fluorescence 635/667; higher = more signal
METRIC: composite z-score
Answer as a number with no unit attached.

Ask: What composite z-score value was documented for this compound, `[N-]=[N+]=NCc1ccccc1[C@H]1OC(c2ccc(OCCCO)cc2)=N[C@@]1(Cc1ccccc1N=[N+]=[N-])C(=O)NCc1ccccc1` ?
Reply: 0.0912

Ask: What composite z-score value was documented for this compound, `COc1cc(Cc2cc3c(c(CCc4ccccc4)n2)[Si](C(C)C)(C(C)C)OC3)cc(OC)c1OC` ?
Reply: 0.48

Ask: What composite z-score value was documented for this compound, O=C1C2C=CC(C(O)Cc3ccccc3)N(Nc3ccc([N+](=O)[O-])cc3)C2C(=O)N1c1ccccc1 (centres undefined) ?
Reply: -0.0551

***
Ask: What composite z-score value was documented for this compound, `CCN1C(C)=C(C(=O)OC)[C@@H](c2ccccc2)N2C(=O)[C@@]3(C(=O)OC)O[C@@]12[C@@H]1C(=O)CCC[C@@H]13` ?
Reply: 1.48

Ask: What composite z-score value was documented for this compound, `CCCC/C=C/[C@H]([C@@H](O)Cc1ccccc1)N(CC#Cc1ccccc1)Cc1ccccc1Br` ?
Reply: -1.84

Ask: What composite z-score value was documented for this compound, `COCCOC(=O)N1C(=O)[C@@]2(c3cc(C#CC4=CCCCC4)ccc31)[C@H](C(=O)NC[C@H](O)c1ccccc1)[C@H]1C(=O)O[C@H](c3ccccc3)[C@H](c3ccccc3)N1[C@@H]2c1ccc(OCCO)cc1` ?
Reply: 1.08

Ask: What composite z-score value was documented for this compound, `O=C/C=C/c1ccc(/C=C/c2ccccc2)cc1` ?
Reply: -0.134

Ask: What composite z-score value was documented for this compound, `COCCOC(=O)N1C(=O)[C@@]2(c3cc(C#CCCO)ccc31)[C@H](c1ccc(OCCO)cc1)N1[C@H](c3ccccc3)[C@H](c3ccccc3)OC(=O)[C@H]1[C@@H]2C(=O)NC[C@H](O)c1ccccc1` ?
Reply: 1.24

Ask: What composite z-score value was documented for this compound, `CC(C)=C1C(=O)C(c2ccccc2)=C2CN3C(=O)N(CCc4ccccc4)C(=O)[C@]3(Cc3ccccc3)[C@H]21` ?
Reply: -0.961

Ask: What composite z-score value was documented for this compound, `COc1cc([C@@H]2N[C@H](C(=O)O)Cc3c2[nH]c2ccccc32)cc(OC)c1OC` ?
Reply: 0.531

Ask: What composite z-score value was documented for this compound, `CCN1C(C)=C(C(=O)OC)[C@@H](c2ccccc2)N2C(=O)[C@@]3(C(=O)OC)O[C@@]12[C@@H]1C(=O)N(c2ccccc2)C(=O)[C@@H]13` ?
Reply: 1.27

Ask: What composite z-score value was documented for this compound, `COc1cc2c(cc1OC)CN(C(=O)[C@H]1[C@@H]3C(=O)O[C@@H](c4ccccc4)[C@@H](c4ccccc4)N3[C@@H](c3ccccc3OCCO)[C@]13C(=O)Nc1ccc(C#CC4(O)CCCCCC4)cc13)CC2` ?
Reply: 0.971

Ask: What composite z-score value was documented for this compound, N#Cc1ccc(NN2C(C(O)c3ccc(I)cc3)C=CC3C(=O)N(c4ccccc4)C(=O)C32)cc1 (centres undefined) ?
Reply: -0.491

Ask: What composite z-score value was documented for this compound, `CO[C@H]1COC(=O)[C@H](C)NC(=O)CC=C[C@@H](C)[C@H](NS(=O)(=O)c2ccc(C)cc2)COC(=O)CC=C[C@@H]1C` ?
Reply: 1.35
